B1: PTPN9 (parent)
chain: ILFSLPPALDWDSVHVPGPHAMTI

variants of: B1; test: protein stability index of a GFP-peptide fusion (GPS, HEK-293T) (PSI 1-6); higher = more stable; details: c terminus: a fixed tail appended;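 note: lentivirally expressed fusions sorted by FACS into six bins by GFP to DsRed ratio, PSI derived from sequencing read proportions per bin multiplied by bin number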

>  <Mutant Id>
H20A

>  <protein stability index>
2.01

$$$$
>  <Mutant Id>
M22H

>  <protein stability index>
1.24

$$$$
>  <Mutant Id>
L2T

>  <protein stability index>
2.62

$$$$
>  <Mutant Id>
L5F

>  <protein stability index>
4.35

$$$$
>  <Mutant Id>
V16T

>  <protein stability index>
3.33

$$$$
>  <Mutant Id>
T23V

>  <protein stability index>
4.05

$$$$
>  <Mutant Id>
L2H

>  <protein stability index>
2.3

$$$$
>  <Mutant Id>
T23Y

>  <protein stability index>
2.69

$$$$
>  <Mutant Id>
A8C

>  <protein stability index>
3.81

$$$$
>  <Mutant Id>
H15C

>  <protein stability index>
2.36

$$$$
>  <Mutant Id>
A21K

>  <protein stability index>
3.13

$$$$
>  <Mutant Id>
L2K

>  <protein stability index>
2.73

$$$$
>  <Mutant Id>
T23M

>  <protein stability index>
4.43

$$$$
>  <Mutant Id>
V16C

>  <protein stability index>
3.24

$$$$
>  <Mutant Id>
G18D

>  <protein stability index>
1.85

$$$$
>  <Mutant Id>
D12N

>  <protein stability index>
2.5

$$$$
>  <Mutant Id>
G18M

>  <protein stability index>
2.48

$$$$
>  <Mutant Id>
L2G

>  <protein stability index>
1.68

$$$$
>  <Mutant Id>
I24E

>  <protein stability index>
1.69

$$$$
>  <Mutant Id>
D10T

>  <protein stability index>
2.95

$$$$
>  <Mutant Id>
T23H

>  <protein stability index>
1.88

$$$$
>  <Mutant Id>
M22S

>  <protein stability index>
1.82

$$$$
>  <Mutant Id>
V16E

>  <protein stability index>
1.38

$$$$
>  <Mutant Id>
P19M

>  <protein stability index>
2.77

$$$$
>  <Mutant Id>
P7D

>  <protein stability index>
1.01

$$$$
>  <Mutant Id>
T23L

>  <protein stability index>
1.76

$$$$
